tested on: primary human hepatic stellate cells (donor 1); test: scaled lipid accumulation score (0 = DMSO-like, 1 = nortriptyline-like); higher = stronger HSC inactivation (lipid re-accumulation), active = hit call of the paper; conditions: library stock concentration: 1 mM; 48 h
About 620 (11%) of roughly 5,800 compounds showed activity. For the sample, actives were picked, then their nearest neighbours and some compounds at random.
observed.property: scaled lipid accumulation score

Below, 7 compounds whose answers are already recorded.
>>> meas_value("CC(C)(CCCCCCCCCCC(C)(C)CC(=O)O)CC(=O)O")
"0.013 (inactive)"
>>> meas_value("O=C(O)CCC/C=C\\C[C@H]1C(=O)C=C[C@@H]1CC[C@@H](O)CCc1ccccc1 [17-phenyl trinor-13,14-dihydro Prostaglandin A2]")
"≤ 0 (inactive)"
>>> meas_value("O=C(O)CCC/C=C\\C[C@@H]1[C@@H](/C=C/[C@@H](O)C2Cc3ccccc3C2)[C@@H](F)C[C@@H]1O")
"≤ 0 (inactive)"
>>> meas_value("CCCCC/C=C/C=C1/C(=O)C=C[C@@H]1C/C=C\\CCCC(=O)O [15-deoxy-.DELTA.12,14-Prostaglandin J2]")
"≤ 0 (inactive)"
>>> meas_value("CCCCCCCCCCCCCCCCCCCCCCCCCCCCCCO [n-Triacontanol]")
"0.026 (inactive)"
>>> meas_value("CCCCCCCCCCCCCCCC(=O)OC[C@H](COP(=O)([O-])OCC[N+](C)(C)C)OC(=O)CCCCCCCC(=O)O")
"≤ 0 (inactive)"
>>> meas_value("O=C(O)[C@H](O)c1ccccc1 [R-(-)-Mandelic Acid]")
"0.02 (inactive)"

// below: scaled lipid accumulation score requested for another compound
QUERY: Could you tell me which scaled lipid accumulation score is on file for CCCCCCCC/C=C\CCCCCCCC(=O)OCC(CO)OC(=O)CCCCCCC/C=C\CCCCCCCC (stereo not drawn) [1,2-Dioleoyl-glycerol (18:1)] ?
RESULT: 0.004 (inactive)

* * *

test system: primary human hepatic stellate cells (donor 1); experiment: scaled lipid accumulation score (0 = DMSO-like, 1 = nortriptyline-like); higher = stronger HSC inactivation (lipid re-accumulation), active = hit call of the paper; conditions: library stock concentration: 3.33 mM; 48 h
In all, about 5,800 compounds went through this assay and about 620 (11%) showed activity.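 The calls were made as follows: active = score above a cut-off or among the top three wells of a plate; in these data no inactive exceeds 0.85.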 What follows is part of a selection rich in actives, with near analogues and random picks from the rest.
Pick one: True for active, False for inactive

QUERY: What classification did COc1ccc([C@@H]2CC(=O)c3c(O)cc(O[C@@H]4O[C@H](CO)[C@@H](O)[C@H](O)[C@H]4O[C@@H]4O[C@@H](C)[C@H](O)[C@@H](O)[C@H]4O)cc3O2)cc1O end up with in this test?
RESULT: False

QUERY: What classification did Clc1ccc(C2(c3ccc(-c4cn[nH]c4)cc3)CCNCC2)cc1 end up with in this test?
RESULT: True

QUERY: What classification did COc1cc2c(Oc3ccc4[nH]c(C)cc4c3F)ncnc2cc1OCCCN1CCCC1 end up with in this test?
RESULT: True

QUERY: What classification did Cc1cc(C=C2C(=O)C=CC2=O)cc(C)c1O end up with in this test?
RESULT: False

* * *

tested on: primary human hepatic stellate cells (donor 1); experiment: scaled lipid accumulation score (0 = DMSO-like, 1 = nortriptyline-like); higher = stronger HSC inactivation (lipid re-accumulation), active = hit call of the paper; conditions: library stock concentration: 2 mM; 48 h
The campaign covered roughly 5,800 compounds. About 620 (11%) showed activity.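 Rule for the calls: active = score above a cut-off or among the top three wells of a plate; in these data no inactive exceeds 0.85.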 What follows is part of a selection rich in actives, with near analogues and random picks from the rest.
Pick one: active, inactive

The examples below pair each entry with its known result.
>>> label("COC(=O)c1ccc2c(C(=Nc3ccc(N(C)C(=O)CN4CCN(C)CC4)cc3)c3ccccc3)c(O)[nH]c2c1")
"inactive"
>>> label("CNC(=O)c1ccc(C)c(-n2c(C)cc(OCc3ccc(F)cc3F)c(Br)c2=O)c1")
"inactive"

QUERY: What classification did Cc1nc(N)ncc1-c1nc(N2CCOCC2)c2sc(C(C)(C)O)cc2n1 end up with in this test?
RESULT: inactive

QUERY: What classification did COc1cc(N2CCN(C)CC2)ccc1Nc1nc(N)c(C(=O)c2c(Cl)cccc2Cl)s1 end up with in this test?
RESULT: inactive

QUERY: What classification did CC1CCN(c2cc(N3CCN(C)CC3)ccc2NC(=O)c2cc(C#N)c[nH]2)CC1 end up with in this test?
RESULT: inactive

QUERY: What classification did COc1ccc(-c2nc(N3CCOCC3)c3sc(CN(C)c4ncc(C(=O)NO)cn4)cc3n2)cn1 end up with in this test?
RESULT: inactive

QUERY: What classification did COc1cc2ncnc(-n3nc(-c4ccccn4)nc3N)c2cc1OC end up with in this test?
RESULT: inactive

QUERY: What classification did Cl.Nc1ccc(C(=O)Nc2cccc(-c3nc(N4CCOCC4)c4oc5ncccc5c4n3)c2)cn1 end up with in this test?
RESULT: active

* * *

system: primary human hepatic stellate cells (donor 1); assay: scaled lipid accumulation score (0 = DMSO-like, 1 = nortriptyline-like); higher = stronger HSC inactivation (lipid re-accumulation), active = hit call of the paper; settings: library stock concentration: 1 mM; 48 h
Screen size: about 5,800 compounds; about 620 (11%) showed activity. The full list was thinned out, with actives kept by preference.
observed.property: scaled lipid accumulation score

>>> meas_value("O=C(O)CCC/C=C\\C[C@H]1[C@@H](/C=C/[C@@H](O)CCc2ccccc2)[C@H](O)C[C@@H]1O")
"≤ 0 (inactive)"
>>> meas_value("CCCCC/C=C\\C/C=C\\C/C=C\\C/C=C\\CCCC(=O)OC(COCCCCCCCCCCCCCCCC)COP(=O)([O-])OCC[N+](C)(C)C (centres undefined)")
"≤ 0 (inactive)"
>>> meas_value("CCCCCC(O)C=CC1C(O)CC(=O)C1CC=CCCCC(=O)O (centres undefined) [8-iso Prostaglandin E2]")
"≤ 0 (inactive)"

// below: scaled lipid accumulation score requested for another molecule
QUERY: Could you tell me which scaled lipid accumulation score is on file for CC/C=C\C/C=C\C/C=C\CCCCCCCC(=O)O ?
RESULT: 0.009 (inactive)

* * *

test system: primary human hepatic stellate cells (donor 1); assay: scaled lipid accumulation score (0 = DMSO-like, 1 = nortriptyline-like); higher = stronger HSC inactivation (lipid re-accumulation), active = hit call of the paper; settings: library stock concentration: 1 mM; 48 h
Among all 5,800 compounds or so, about 620 (11%) showed activity. This excerpt belongs to a sample that is enriched for actives.
What scaled lipid accumulation score was measured for each of the following?

Below, 7 molecules whose answers are already recorded.
>>> meas_value("CCCCC[C@@](C)(O)/C=C/[C@@H]1[C@@H](C/C=C\\CCCC(=O)OC)[C@@H](O)C[C@H]1O [15(R)-15-methyl Prostaglandin F2.alpha. methyl ester]")
"≤ 0 (inactive)"
>>> meas_value("CCCCCCCCCCCC#CC#CC#CC#CC(=O)O [Eicosatetraynoic Acid]")
"≤ 0 (inactive)"
>>> meas_value("COc1ccc(-c2nc3cc(F)ccc3s2)cc1OC")
"≤ 0 (inactive)"
>>> meas_value("CCCCCCCCCCCCCCCCOP(=O)([O-])OCC[N+](C)(C)C [Miltefosine]")
"≤ 0 (inactive)"
>>> meas_value("CCCCCCCC/C=C\\CCCCCCCC(=O)NCCS(=O)(=O)O [N-Oleoyl Taurine]")
"0.011 (inactive)"
>>> meas_value("C=C1C[C@@H](O)[C@H](/C=C/[C@@H](O)CCCCC)[C@H]1C/C=C\\CCCC(=O)O [9-deoxy-9-methylene Prostaglandin E2]")
"0.01 (inactive)"
>>> meas_value("CCCCC/C=C/C=C1/C=CC(=O)[C@@H]1C/C=C\\CCCC(=O)O [15-deoxy-.DELTA.12,14-Prostaglandin A2]")
"≤ 0 (inactive)"

// below: scaled lipid accumulation score requested for another molecule
QUERY: Look up scaled lipid accumulation score with primary human hepatic stellate cells (donor 1) for this molecule: CCCCC/C=C\C/C=C\C/C=C\CCCCCCC(=O)O [Dihomo-gamma-linolenic acid]
RESULT: ≤ -0.021 (inactive)

* * *

system: primary human hepatic stellate cells (donor 1); assay: scaled lipid accumulation score (0 = DMSO-like, 1 = nortriptyline-like); higher = stronger HSC inactivation (lipid re-accumulation), active = hit call of the paper; conditions: library stock concentration: 10 mM; 48 h
The whole screen tested about 5,800 compounds, of which about 620 (11%) showed activity.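 The calls were made as follows: active = score above a cut-off or among the top three wells of a plate; in these data no inactive exceeds 0.85.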 For the sample, actives were picked, then their nearest neighbours and some compounds at random.
Pick one: active, inactive

QUERY: What classification did O=C(O)Cn1nnc(-c2cc(N3CCC(Oc4cc(F)ccc4Br)CC3)no2)n1 end up with in this test?
RESULT: inactive

* * *

tested on: primary human hepatic stellate cells (donor 1); test: scaled lipid accumulation score (0 = DMSO-like, 1 = nortriptyline-like); higher = stronger HSC inactivation (lipid re-accumulation), active = hit call of the paper; settings: library stock concentration: 10 mM; 48 h
Where a name gives a salt, the structure may show the parent alone. In all, about 5,800 compounds went through this assay and about 620 (11%) showed activity.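 Rule for the calls: active = score above a cut-off or among the top three wells of a plate; in these data no inactive exceeds 0.85.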 What follows is part of a selection rich in actives, with near analogues and random picks from the rest.
Pick one: active, inactive

The examples below pair each entry with its known result.
>>> label("CC1CCN(CCCC(=O)c2ccc(F)cc2)CC1")
"inactive"
>>> label("Brc1ccc(C2CN3CCSC3=N2)cc1 (single isomer, unassigned; (-)) [(-)-p-Bromotetramisole Oxalate]")
"inactive"
>>> label("CC(C)(C)c1nc2c3cc[nH]c(=O)c3c3cc(F)ccc3c2[nH]1 [Merck -5 (10 mM)]")
"inactive"

QUERY: What classification did C[C@H](O)[C@H](O)[C@@H](O)[C@@H](O)C=O [L-(+)-Rhamnose Monohydrate] end up with in this test?
RESULT: inactive

QUERY: What classification did Cl.O[Si](CCCN1CCCCC1)(c1ccc(F)cc1)C1CCCCC1 (stereo unspecified) [Hexahydro-sila-difenidol hydrochloride, p-fluoro analog] end up with in this test?
RESULT: active

QUERY: What classification did Cn1cnc(=N)c2[nH]cnc21 [3-Methyladenine] end up with in this test?
RESULT: inactive

QUERY: What classification did CN1CCN2c3ccccc3Cc3ccccc3C2C1 (stereo unspecified) [Mianserin HCl] end up with in this test?
RESULT: inactive

QUERY: What classification did CCC(CC)CC1(C(=O)Nc2ccccc2SC(=O)C(C)C)CCCCC1 end up with in this test?
RESULT: inactive

QUERY: What classification did CNCCc1ccccn1 [Betahistine 2HCl] end up with in this test?
RESULT: inactive

QUERY: What classification did CC(C(O)c1ccc(O)cc1)N1CCC(Cc2ccccc2)CC1.CC(C(O)c1ccc(O)cc1)N1CCC(Cc2ccccc2)CC1.O=C(O)C(O)C(O)C(=O)O (stereo unspecified) [Ifenprodil tartrate] end up with in this test?
RESULT: active

QUERY: What classification did CN1CCN2c3ncccc3Cc3ccccc3C2C1 (stereo unspecified) [mirtazapine] end up with in this test?
RESULT: inactive

QUERY: What classification did CN1CCN2c3ccccc3Cc3ccccc3C2C1.Cl (stereo unspecified) [Mianserin hydrochloride] end up with in this test?
RESULT: active

QUERY: What classification did C[C@@H](CN1CCC(Cc2ccccc2)CC1)[C@@H](O)c1ccc(O)cc1 [Ro 25-6981 maleate] end up with in this test?
RESULT: inactive

QUERY: What classification did CCN(CC)CCNC(=O)c1ccc(NC(C)=O)cc1 [N-Acetylprocainamide hydrochloride] end up with in this test?
RESULT: inactive

QUERY: What classification did CN1CCN2c3ccccc3Cc3ccccc3C2C1 (stereo unspecified) [Mianserin hydrochloride] end up with in this test?
RESULT: inactive

QUERY: What classification did N#Cc1ccccc1OCC(O)CNCCNC(=O)Nc1ccccc1 (stereo unspecified) end up with in this test?
RESULT: inactive

QUERY: What classification did CC1CCN(CCCC(=O)c2ccc(F)cc2)CC1 [Melperone hydrochloride] end up with in this test?
RESULT: inactive

QUERY: What classification did COc1cc(N2CCC(N3CCN(C)CC3)CC2)ccc1Nc1ncc(Cl)c(Nc2ccccc2S(=O)(=O)C(C)C)n1 end up with in this test?
RESULT: inactive

QUERY: What classification did CNCC[C@@H](Oc1ccccc1C)c1ccccc1 [Atomoxetine HCl] end up with in this test?
RESULT: inactive

QUERY: What classification did CCCNCC(O)COc1ccccc1C(=O)CCc1ccccc1.Cl (stereo unspecified) [Propafenone hydrochloride] end up with in this test?
RESULT: active
